Tested On: T1, rKv4.3N (Rattus norvegicus, UniProt Q62897)
T1 construct: expressed in transfected cells; host or cells: yeast HF7c (bait), mated with Y187 (fish)
T1 sequence (Q62897 1-180): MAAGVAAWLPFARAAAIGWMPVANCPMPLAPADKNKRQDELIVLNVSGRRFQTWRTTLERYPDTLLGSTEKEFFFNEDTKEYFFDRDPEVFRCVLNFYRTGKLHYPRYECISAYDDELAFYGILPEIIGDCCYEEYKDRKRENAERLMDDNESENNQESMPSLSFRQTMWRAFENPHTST
Assay Method Text: Yeast two-hybrid binding and specificity test, Kv4.3 N-terminal bait
Text: The first 180 amino acids of rKv4.3 (described in Serdio P. et al. (1996) J. Neurophys 75:2174-2179) were amplified by PCR and cloned in frame into pGBT9 resulting in plasmid pFWA2, (hereinafter “bait”). This bait was transformed into the two-hybrid screening strain HF7c and tested for expression and self-activation. The bait was validated for expression by Western blotting. […]
Property Label: binding to rKv4.3N in yeast two-hybrid assay

{"columns": ["Molecule", "Test Value"],
 "data": [
  ["Rat 19r: identical to Rat phosphatidylinositol (PTDINS) transfer protein alpha (protein) MVLLKEYRVILPVSVDEYQVGQLYSVAEASKNETGGGEGVEVLVNEPYEKDDGEKGQYTHKIYHLQSKVPTFVRMLAPEGALNIHEKAWNAYPYCRTVITNEYMKEDFLIKIETWHKPDLGTQENVHKLEPEAWKHVEAIYIDIADRSQVLSKDYKAEEDPAKFKSIKTGRGPLGPNWKQELVNQKDCPYMCAYKLVTVKFKWWGLQNKVENFIHKQEKRLFTNFHRQLFCWLDKWVDLTMDDIRRMEEETKRQLDEMRQKDPVKGMTADD", "binds"]
]}
